Reported MIC is given for each of the following compounds.
- Test system: C. parapsilosis ATCC 22019
- testDescription: microbe, parasite or virus in culture
- Type: cell-based
- measurementContext: ATCC 22019, pH 7
- Experimental: The test organisms consisted of strains from the Micromyx collection. Reference isolates were originally received from the American Type Culture Collection (ATCC; Manassas, Va.). Organisms received at Micromyx were initially streaked for isolation on Sabouraud dextrose or potato dextrose agar. […] A standardized inoculum of each organism was prepared. […] For the Aspergillus isolates, previously prepared and quantitated suspensions were used to make dilutions in RPMI to reach 20× the final concentration. […]
endpointName: MIC (µg/mL)

- compound: "CC[C@H](C)C[C@H](C)CCCCCCCCC(=O)N[C@H]1C[C@@H](O)[C@@H](NCCNC(=O)CCNC(=O)[C@H](Cc2ccccc2)NC(=O)[C@H](CC(C)C)NC(=O)[C@H](CCSC)NC(C)=O)NC(=O)[C@@H]2[C@@H](O)CCN2C(=O)[C@H]([C@H](O)CCN)NC(=O)[C@H]([C@H](O)[C@@H](O)c2ccc(O)cc2)NC(=O)[C@@H]2C[C@@H](O)CN2C(=O)[C@H]([C@@H](C)O)NC1=O [Compound 8]"
  readoutNumber: 32
- compound: "CC[C@H](C)C[C@H](C)CCCCCCCCC(=O)N[C@H]1C[C@@H](O)[C@@H](NCCNC(=O)[C@H](Cc2ccccc2)NC(=O)[C@H](CC(C)C)NC(=O)[C@H](CCSC)NC=O)NC(=O)[C@@H]2[C@@H](O)CCN2C(=O)[C@H]([C@H](O)CCN)NC(=O)[C@H]([C@H](O)[C@@H](O)c2ccc(O)cc2)NC(=O)[C@@H]2C[C@@H](O)CN2C(=O)[C@H]([C@@H](C)O)NC1=O [Compound 2]"
  readoutNumber: 16
- compound: "CC[C@H](C)C[C@H](C)CCCCCCCCC(=O)N[C@H]1C[C@@H](O)[C@@H](NCCNC(=O)CCNC(=O)[C@H](Cc2ccccc2)NC(=O)[C@H](CC(C)C)NC(=O)[C@H](CCSC)NC=O)NC(=O)[C@@H]2[C@@H](O)CCN2C(=O)[C@H]([C@H](O)CCN)NC(=O)[C@H]([C@H](O)[C@@H](O)c2ccc(O)cc2)NC(=O)[C@@H]2C[C@@H](O)CN2C(=O)[C@H]([C@@H](C)O)NC1=O [Compound 4]"
  readoutNumber: 32

----------
Here the recorded MIC is given for each entry.
- Tested on: C. albicans ATCC 90028
- testDescription: microbe, parasite or virus in culture
- Type: cell-based
- measurementContext: ATCC 90028, pH 7
endpointName: MIC (mg/L)

- moleculeSmiles: "CC[C@H](C)C[C@H](C)CCCCCCCCC(=O)N[C@H]1C[C@@H](O)[C@@H](NCCNC(=O)CCNC(=O)[C@H](Cc2ccccc2)NC(=O)[C@H](CC(C)C)NC(=O)[C@H](CCSC)NC(=O)OCC(C)C)NC(=O)[C@@H]2[C@@H](O)CCN2C(=O)[C@H]([C@H](O)CCN)NC(=O)[C@H]([C@H](O)[C@@H](O)c2ccc(O)cc2)NC(=O)[C@@H]2C[C@@H](O)CN2C(=O)[C@H]([C@@H](C)O)NC1=O"
  readoutNumber: 2
- moleculeSmiles: "CC[C@H](C)C[C@H](C)CCCCCCCCC(=O)N[C@H]1C[C@@H](O)[C@@H](NCCN)NC(=O)[C@@H]2[C@@H](O)CCN2C(=O)[C@H]([C@H](O)CCNC(=O)[C@H](CCSC)NC(=O)[C@H](CC(C)C)NC(=O)[C@H](CCSC)NC=O)NC(=O)[C@H]([C@H](O)[C@@H](O)c2ccc(O)cc2)NC(=O)[C@@H]2C[C@@H](O)CN2C(=O)[C@H]([C@@H](C)O)NC1=O"
  readoutNumber: 1
- moleculeSmiles: "CC[C@H](C)C[C@H](C)CCCCCCCCC(=O)N[C@H]1C[C@@H](O)[C@@H](NCCN)NC(=O)[C@@H]2[C@@H](O)CCN2C(=O)[C@H]([C@H](O)CCNC(=O)[C@H](CO)NC(=O)[C@H](CC(C)C)NC(=O)[C@H](CCSC)NC=O)NC(=O)[C@H]([C@H](O)[C@@H](O)c2ccc(O)cc2)NC(=O)[C@@H]2C[C@@H](O)CN2C(=O)[C@H]([C@@H](C)O)NC1=O"
  readoutNumber: 2
- moleculeSmiles: "CC[C@H](C)C[C@H](C)CCCCCCCCC(=O)N[C@H]1C[C@@H](O)[C@@H](NCCN)NC(=O)[C@@H]2[C@@H](O)CCN2C(=O)[C@H]([C@H](O)CCNC(=O)[C@H](CCCCN)NC(=O)[C@H](Cc2ccccc2)NC(=O)[C@H](CC(C)C)NC(=O)[C@H](CCSC)NC=O)NC(=O)[C@H]([C@H](O)[C@@H](O)c2ccc(O)cc2)NC(=O)[C@@H]2C[C@@H](O)CN2C(=O)[C@H]([C@@H](C)O)NC1=O"
  readoutNumber: 2

----------
- System: A. fumigatus ATCC 13073
- testDescription: MEC assay (Example 31)
- Assay type: cell-based
- measurementContext: RPMI pH 7.0, 35° C., 24-48 hr
endpointName: MEC

- moleculeSmiles: "CC[C@H](C)C[C@H](C)CCCCCCCCC(=O)N[C@H]1C[C@@H](O)[C@@H](NCCN)NC(=O)[C@@H]2[C@@H](O)CCN2C(=O)[C@H]([C@H](O)CCNC(=O)[C@@H](N)CCCCNC(=O)[C@H](Cc2ccccc2)NC(=O)[C@H](CC(C)C)NC(=O)[C@H](CCSC)NC=O)NC(=O)[C@H]([C@H](O)[C@@H](O)c2ccc(O)cc2)NC(=O)[C@@H]2C[C@@H](O)CN2C(=O)[C@H]([C@@H](C)O)NC1=O"
  result: "0.12 µg/mL"

----------
Listing of recorded MIC by entry.
- System: C. glabrata ATCC 90030
- testDescription: microbe, parasite or virus in culture
- Assay type: cell-based
- measurementContext: ATCC 90030, pH 7

- compound: "CC[C@H](C)C[C@H](C)CCCCCCCCC(=O)N[C@H]1C[C@@H](O)[C@@H](OCCN)NC(=O)[C@@H]2[C@@H](O)CCN2C(=O)[C@H]([C@H](O)CCNC(=O)[C@H](Cc2ccccc2)NC(=O)[C@H](CC(C)C)NC(=O)[C@H](CCSC)NC=O)NC(=O)[C@H]([C@H](O)[C@@H](O)c2ccc(O)cc2)NC(=O)[C@@H]2C[C@@H](O)CN2C(=O)[C@H]([C@@H](C)O)NC1=O [Compound 11]"
  MIC: "8 µg/mL"
- compound: "CC[C@H](C)C[C@H](C)CCCCCCCCC(=O)N[C@H]1C[C@@H](O)[C@@H](NCCNC(=O)CCNC(=O)[C@H](Cc2ccccc2)NC(=O)[C@H](CC(C)C)NC(=O)[C@H](CCSC)NC=O)NC(=O)[C@@H]2[C@@H](O)CCN2C(=O)[C@H]([C@H](O)CCN)NC(=O)[C@H]([C@H](O)[C@@H](O)c2ccc(O)cc2)NC(=O)[C@@H]2C[C@@H](O)CN2C(=O)[C@H]([C@@H](C)O)NC1=O [Compound 4]"
  MIC: "4 µg/mL"
- compound: "CC[C@H](C)C[C@H](C)CCCCCCCCC(=O)N[C@H]1C[C@@H](O)[C@@H](NCCN)NC(=O)[C@@H]2[C@@H](O)CCN2C(=O)[C@H]([C@H](O)CCNC(=O)[C@H](CCCCN)NC(=O)[C@H](Cc2ccccc2)NC(=O)[C@H](CC(C)C)NC(=O)[C@H](CCSC)NC=O)NC(=O)[C@H]([C@H](O)[C@@H](O)c2ccc(O)cc2)NC(=O)[C@@H]2C[C@@H](O)CN2C(=O)[C@H]([C@@H](C)O)NC1=O [Compound 14]"
  MIC: "16 µg/mL"
- compound: "CC[C@H](C)C[C@H](C)CCCCCCCCC(=O)N[C@H]1C[C@@H](O)[C@@H](NCCN)NC(=O)[C@@H]2[C@@H](O)CCN2C(=O)[C@H]([C@H](O)CCNC(=O)[C@H](CO)NC(=O)[C@H](CC(C)C)NC(=O)[C@H](CCSC)NC=O)NC(=O)[C@H]([C@H](O)[C@@H](O)c2ccc(O)cc2)NC(=O)[C@@H]2C[C@@H](O)CN2C(=O)[C@H]([C@@H](C)O)NC1=O [Compound 29]"
  MIC: "8 µg/mL"
- compound: "CC[C@H](C)C[C@H](C)CCCCCCCCC(=O)N[C@H]1C[C@@H](O)[C@@H](NCCN)NC(=O)[C@@H]2[C@@H](O)CCN2C(=O)[C@H]([C@H](O)CCNC(=O)CCNC(=O)[C@H](Cc2ccccc2)NC(=O)[C@H](CC(C)C)NC(=O)[C@H](CCSC)NC(=O)OCC(C)C)NC(=O)[C@H]([C@H](O)[C@@H](O)c2ccc(O)cc2)NC(=O)[C@@H]2C[C@@H](O)CN2C(=O)[C@H]([C@@H](C)O)NC1=O [Compound 5]"
  MIC: "4 µg/mL"
